- testSystem: UniProt:Q81258
- Sequence (Q81258 1664-1717): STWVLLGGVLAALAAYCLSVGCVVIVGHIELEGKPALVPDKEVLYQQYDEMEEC
- Sequence (Q81258 1033-1663): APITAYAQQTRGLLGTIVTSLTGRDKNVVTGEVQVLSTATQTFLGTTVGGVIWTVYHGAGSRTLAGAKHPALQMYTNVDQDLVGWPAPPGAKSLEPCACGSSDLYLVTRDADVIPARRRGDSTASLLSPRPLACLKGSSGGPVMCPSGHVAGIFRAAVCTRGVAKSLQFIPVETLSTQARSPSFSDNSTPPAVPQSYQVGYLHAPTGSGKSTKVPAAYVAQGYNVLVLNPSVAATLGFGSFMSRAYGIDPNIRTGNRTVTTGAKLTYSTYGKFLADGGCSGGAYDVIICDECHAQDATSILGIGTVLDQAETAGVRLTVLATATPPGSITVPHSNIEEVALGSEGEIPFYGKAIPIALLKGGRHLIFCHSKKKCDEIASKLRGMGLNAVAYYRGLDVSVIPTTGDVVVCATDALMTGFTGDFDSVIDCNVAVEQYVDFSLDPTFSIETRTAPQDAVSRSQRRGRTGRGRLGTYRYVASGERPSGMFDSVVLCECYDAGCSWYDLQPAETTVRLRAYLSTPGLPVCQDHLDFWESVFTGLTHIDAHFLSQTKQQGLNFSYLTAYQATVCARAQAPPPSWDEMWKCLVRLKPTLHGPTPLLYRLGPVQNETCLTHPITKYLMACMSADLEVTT
- methodNotes: HCV NS3 protease time-resolved fluorescence (TRF) assay, genotype 3a
- Assay type: biochemical
- setupConditions: Ki 3a
Listed compounds paired with reported Ki
Report the figure in nM without appending any unit label.

compound	readoutUnits	Ki
CC[C@@H]1C[C@]1(NC(=O)[C@@H]1C[C@@H]2CN1C(=O)[C@H](C1CCCC1)NC(=O)O[C@@]1(C)CCC[C@@H]1CCCCCc1c(nc3ccccc3c1O)O2)C(=O)NS(=O)(=O)C1CC1 [Example 31]	nM	23
C=C[C@@H]1C[C@]1(NC(=O)[C@@H]1C[C@@H]2CN1C(=O)[C@H](C1CCCC1)NC(=O)O[C@@H]1CCC[C@H]1CC/C=C/Cc1c(nc3ccccc3c1OCCN1CC3(CCC3)C1)O2)C(=O)NS(=O)(=O)C1(C)CC1 [Example 86]	nM	4.4

For this compound ( C=C[C@@H]1C[C@]1(NC(=O)[C@@H]1C[C@@H]2CN1C(=O)[C@H](C1CCCCC1)NC(=O)O[C@@H]1C[C@H]1CCCCCc1c(nc3ccccc3c1OCCCN1CCCOCC1)O2)C(=O)NS(=O)(=O)C1(C)CC1 [Example 168] ), measured Ki is 1.3

Origin of the recorded values: patent US9328138B2
